- EXPERIMENT_DESCRIPTION: Terminal phase half life in dog at 1 mg/kg, iv and 2 mg/kg, po
- STATED_CONDITIONS: in vivo, read-out: beta t1/2 (converted)
Recorded half-life for the following compounds
MEASURED_METRIC: half-life (min)

                                   molecule  value
0  CC(=O)N1C[C@@H](F)C[C@H]1c1nc(C(=O)NCc2ccc(F)c(Cl)c2)c(O)c(=O)n1C    426
1  CC(=O)N1C[C@@H](F)C[C@H]1c1nc(C(=O)NCc2ccc(C)c(Cl)c2)c(O)c(=O)n1C     72
2  CN1C[C@@H](F)C[C@H]1c1nc(C(=O)NCc2ccc(F)cc2)c(O)c(=O)n1C    222

----------
- EXPERIMENT_DESCRIPTION: Oral bioavailability in dog at 1 mg/kg
- Type: ADME, organism-based, Canis lupus familiaris
- STATED_CONDITIONS: in vivo
Recorded bioavailability for the following molecules
MEASURED_METRIC: bioavailability (%)

>>> print(df.to_string())
                                   molecule  output_unit  value
0  CC(=O)N1C[C@@H](F)C[C@H]1c1nc(C(=O)NCc2ccc(C)c(Cl)c2)c(O)c(=O)n1C            %     80
1  CC(=O)N1C[C@@H](F)C[C@H]1c1nc(C(=O)NCc2ccc(F)c(Cl)c2)c(O)c(=O)n1C            %     34
2  CN1C[C@@H](F)C[C@H]1c1nc(C(=O)NCc2ccc(F)cc2)c(O)c(=O)n1C            %    116

----------
- EXPERIMENT_DESCRIPTION: Plasma clearance in rat at 3 mg/kg, po and 3 mg/kg, iv
- Type: ADME, organism-based
MEASURED_METRIC: log10(clearance) (log10 of the value in mL/min/kg)

>>> df
                                    molecule   measured_metric  value
 0  CN(C)S(=O)(=O)N1C[C@@H](F)C[C@H]1c1nc(C(=O)NCc2ccc(F)cc2)c(O)c(=O)n1C  log10(clearance)   1.81
 1  CC(=O)N1C[C@@H](F)C[C@H]1c1nc(C(=O)NCc2ccc(C)c(Cl)c2)c(O)c(=O)n1C  log10(clearance)   1.46
 2  Cn1c([C@@H]2C[C@H](F)CN2C(=O)c2cnccn2)nc(C(=O)NCc2ccc(F)cc2)c(O)c1=O  log10(clearance)   1.89
 3  CN1C[C@@H](F)C[C@H]1c1nc(C(=O)NCc2ccc(F)cc2)c(O)c(=O)n1C  log10(clearance)   1.32
 4  COC(=O)N1C[C@@H](F)C[C@H]1c1nc(C(=O)NCc2ccc(F)cc2)c(O)c(=O)n1C  log10(clearance)   1.66
 5  COC(=O)N1C[C@@H](F)C[C@H]1c1nc(C(=O)NCc2ccc(F)c(Cl)c2)c(O)c(=O)n1C  log10(clearance)   1.32
 6  CC(=O)N1C[C@@H](F)C[C@H]1c1nc(C(=O)NCc2ccc(F)c(C)c2)c(O)c(=O)n1C  log10(clearance)   1.59
 7  COC(=O)N1C[C@@H](F)C[C@H]1c1nc(C(=O)NCc2ccc(C)c(Cl)c2)c(O)c(=O)n1C  log10(clearance)   1.00
 8  CN(C)C(=O)C(=O)N1C[C@@H](F)C[C@H]1c1nc(C(=O)NCc2ccc(F)cc2)c(O)c(=O)n1C  log10(clearance)   2.14
 9  CC(=O)N1C[C@@H](F)C[C@H]1c1nc(C(=O)NCc2ccc(F)c(Cl)c2)c(O)c(=O)n1C  log10(clearance)   1.63
10  CC(=O)N1C[C@@H](F)C[C@H]1c1nc(C(=O)NCc2ccc(F)cc2)c(O)c(=O)n1C  log10(clearance)   1.81

----------
- TESTED_TARGET: Human immunodeficiency virus type 1 integrase (Human immunodeficiency virus 1)
- Sequence (Q7ZJM1 whole entry): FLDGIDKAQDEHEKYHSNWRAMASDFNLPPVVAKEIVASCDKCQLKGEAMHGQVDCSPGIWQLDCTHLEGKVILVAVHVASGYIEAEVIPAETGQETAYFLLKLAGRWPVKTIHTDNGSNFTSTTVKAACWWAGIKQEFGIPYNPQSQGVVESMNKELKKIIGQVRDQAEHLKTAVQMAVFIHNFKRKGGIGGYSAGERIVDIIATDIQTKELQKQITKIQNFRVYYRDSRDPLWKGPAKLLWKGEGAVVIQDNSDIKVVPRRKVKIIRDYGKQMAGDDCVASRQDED
- EXPERIMENT_DESCRIPTION: Inhibition of HIV 1 recombinant integrase
Recorded IC50 for the following molecules
MEASURED_METRIC: IC50 (nM)

>>> df
                                    molecule                             tested_target  value
 0  CC(=O)N1C[C@@H](F)C[C@H]1c1nc(C(=O)NCc2ccc(C)c(Cl)c2)c(O)c(=O)n1C  Human immunodeficiency virus type 1 integrase (Human immunodeficiency virus 1)     32
 1  Cn1c([C@@H]2C[C@H](F)CN2S(C)(=O)=O)nc(C(=O)NCc2ccc(F)cc2)c(O)c1=O  Human immunodeficiency virus type 1 integrase (Human immunodeficiency virus 1)     15
 2  CN(C)C(=O)C(=O)N1C[C@@H](F)C[C@H]1c1nc(C(=O)NCc2ccc(F)cc2)c(O)c(=O)n1C  Human immunodeficiency virus type 1 integrase (Human immunodeficiency virus 1)     21
 3  CN(C)S(=O)(=O)N1C[C@@H](F)C[C@H]1c1nc(C(=O)NCc2ccc(F)cc2)c(O)c(=O)n1C  Human immunodeficiency virus type 1 integrase (Human immunodeficiency virus 1)      9
 4  CN(C)C(=O)N1C[C@@H](F)C[C@H]1c1nc(C(=O)NCc2ccc(F)cc2)c(O)c(=O)n1C  Human immunodeficiency virus type 1 integrase (Human immunodeficiency virus 1)     10
 5  COC(=O)N1C[C@@H](F)C[C@H]1c1nc(C(=O)NCc2ccc(F)cc2)c(O)c(=O)n1C  Human immunodeficiency virus type 1 integrase (Human immunodeficiency virus 1)     10
 6  COC(=O)N1C[C@@H](F)C[C@H]1c1nc(C(=O)NCc2ccc(F)c(Cl)c2)c(O)c(=O)n1C  Human immunodeficiency virus type 1 integrase (Human immunodeficiency virus 1)     19
 7  CN1C[C@@H](F)C[C@H]1c1nc(C(=O)NCc2ccc(F)cc2)c(O)c(=O)n1C  Human immunodeficiency virus type 1 integrase (Human immunodeficiency virus 1)     23
 8  Cn1c([C@@H]2C[C@H](F)CN2C(=O)c2cnccn2)nc(C(=O)NCc2ccc(F)cc2)c(O)c1=O  Human immunodeficiency virus type 1 integrase (Human immunodeficiency virus 1)     10
 9  Cn1c([C@@H]2C[C@H](F)CN2C2CC2)nc(C(=O)NCc2ccc(F)cc2)c(O)c1=O  Human immunodeficiency virus type 1 integrase (Human immunodeficiency virus 1)     20
10  CC(=O)N1C[C@@H](F)C[C@H]1c1nc(C(=O)NCc2ccc(F)c(C)c2)c(O)c(=O)n1C  Human immunodeficiency virus type 1 integrase (Human immunodeficiency virus 1)     27
11  Cn1c([C@@H]2C[C@H](F)CN2Cc2ccon2)nc(C(=O)NCc2ccc(F)cc2)c(O)c1=O  Human immunodeficiency virus type 1 integrase (Human immunodeficiency virus 1)     10
12  CC(=O)N1C[C@@H](F)C[C@H]1c1nc(C(=O)NCc2ccc(F)cc2)c(O)c(=O)n1C  Human immunodeficiency virus type 1 integrase (Human immunodeficiency virus 1)     15
13  COC(=O)N1C[C@@H](F)C[C@H]1c1nc(C(=O)NCc2ccc(C)c(Cl)c2)c(O)c(=O)n1C  Human immunodeficiency virus type 1 integrase (Human immunodeficiency virus 1)     20
14  CC(=O)N1C[C@@H](F)C[C@H]1c1nc(C(=O)NCc2ccc(F)c(Cl)c2)c(O)c(=O)n1C  Human immunodeficiency virus type 1 integrase (Human immunodeficiency virus 1)     24

----------
- EXPERIMENT_DESCRIPTION: Oral bioavailability in rat at 3 mg/kg
- Type: ADME, organism-based
- STATED_CONDITIONS: in vivo
Recorded bioavailability for the following compounds
MEASURED_METRIC: bioavailability

                                   molecule  measured_metric  value
0  CC(=O)N1C[C@@H](F)C[C@H]1c1nc(C(=O)NCc2ccc(F)c(C)c2)c(O)c(=O)n1C  bioavailability    17%
1  CN(C)S(=O)(=O)N1C[C@@H](F)C[C@H]1c1nc(C(=O)NCc2ccc(F)cc2)c(O)c(=O)n1C  bioavailability    16%
2  CC(=O)N1C[C@@H](F)C[C@H]1c1nc(C(=O)NCc2ccc(F)cc2)c(O)c(=O)n1C  bioavailability    31%
3  CC(=O)N1C[C@@H](F)C[C@H]1c1nc(C(=O)NCc2ccc(F)c(Cl)c2)c(O)c(=O)n1C  bioavailability    20%
4  CC(=O)N1C[C@@H](F)C[C@H]1c1nc(C(=O)NCc2ccc(C)c(Cl)c2)c(O)c(=O)n1C  bioavailability    94%
5  COC(=O)N1C[C@@H](F)C[C@H]1c1nc(C(=O)NCc2ccc(F)c(Cl)c2)c(O)c(=O)n1C  bioavailability    25%
6  CN(C)C(=O)C(=O)N1C[C@@H](F)C[C@H]1c1nc(C(=O)NCc2ccc(F)cc2)c(O)c(=O)n1C  bioavailability    19%
7  COC(=O)N1C[C@@H](F)C[C@H]1c1nc(C(=O)NCc2ccc(F)cc2)c(O)c(=O)n1C  bioavailability    44%
8  Cn1c([C@@H]2C[C@H](F)CN2C(=O)c2cnccn2)nc(C(=O)NCc2ccc(F)cc2)c(O)c1=O  bioavailability    18%
9  COC(=O)N1C[C@@H](F)C[C@H]1c1nc(C(=O)NCc2ccc(C)c(Cl)c2)c(O)c(=O)n1C  bioavailability    10%
